Listing: IC50 of selected compounds
System: 317291-083-R-J1-PDC complex spheroids, viability
Method summary: Anticancer human tumor 317291-083-R-J1-PDC patient-derived soft tissue sarcoma cell line growth inhibition [GQUAD]
Test parameters: curve of first compound; second compound 1 µM
Assay metric: IC50

{"columns": ["Compound", "Value"],
 "data": [
  ["CC1COCCN1c1cc(-c2ccnn2C)c2ccnc(-c3ccn[nH]3)c2n1 (stereo unspecified) + Cc1cnc(CNC(=O)c2c(=O)c3ccc(N4CCCN(C)CC4)nc3n3c2sc2ccccc23)cn1", "< 0.0316 µM"],
  ["Nc1ccn(C2OC(CO)C(O)C2(F)F)c(=O)n1 (stereo unspecified) + CN(C)c1ccc(Nc2c3ccc(NC(=O)CCN4CCCC4)cc3nc3cc(NC(=O)CCN4CCCC4)ccc23)cc1", "< 0.0316 µM"],
  ["CC(C)(O)C1CCC(Nc2ccc3ncc(-c4cccc(C(F)(F)F)c4)n3n2)CC1 (stereo unspecified) + Cc1cnc(CNC(=O)c2c(=O)c3ccc(N4CCCN(C)CC4)nc3n3c2sc2ccccc23)cn1", "< 0.0316 µM"],
  ["CC1COCCN1c1cc(-c2ccnn2C)c2ccnc(-c3ccn[nH]3)c2n1 (stereo unspecified) + CN(C)c1ccc(Nc2c3ccc(NC(=O)CCN4CCCC4)cc3nc3cc(NC(=O)CCN4CCCC4)ccc23)cc1", "< 0.0316 µM"],
  ["COc1ncnc(C2CC2)c1-c1ncc2cnn(Cc3ccc(-c4nc(C(F)(F)F)cn4C(C)C)cc3)c2n1 + Cc1[nH]c2ccc(F)cc2c1-c1nc2c3cccnc3c3ncccc3c2[nH]1", "< 0.0316 µM"],
  ["C=CCn1c(=O)c2cnc(Nc3ccc(N4CCN(C)CC4)cc3)nc2n1-c1cccc(C(C)(C)O)n1 + Cc1[nH]c2ccc(F)cc2c1-c1nc2c3cccnc3c3ncccc3c2[nH]1", "0.0395 µM"]
]}

* * *

System: 317291-083-R-J1-PDC complex spheroids, viability
Method summary: Anticancer human tumor 317291-083-R-J1-PDC cell line growth inhibition [GQUAD]; active means viability on the fitted dose curve at most 10% of control; inactive means the rest;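 further: spheroids exposed to compounds for one week before readout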
Test parameters: second compound 0.1 µM; first compound 3.16 µM
Labels: active, inactive

{"columns": ["Compound", "Category"],
 "data": [
  ["CC(=O)O[C@H]1C(=O)[C@@]2(C)[C@H]([C@H](OC(=O)c3ccccc3)[C@]3(O)C[C@H](OC(=O)[C@H](O)[C@@H](NC(=O)c4ccccc4)c4ccccc4)C(C)=C1C3(C)C)[C@]1(OC(C)=O)CO[C@@H]1C[C@@H]2O + CN(C)c1ccc(Nc2c3ccc(NC(=O)CCN4CCCC4)cc3nc3cc(NC(=O)CCN4CCCC4)ccc23)cc1", "inactive"],
  ["COc1cccc2c1C(=O)c1c(O)c3c(c(O)c1C2=O)CC(O)(C(=O)CO)CC3OC1CC(N)C(O)C(C)O1 (configuration not stated) + Cc1cnc(CNC(=O)c2c(=O)c3ccc(N4CCCN(C)CC4)nc3n3c2sc2ccccc23)cn1", "active"]
]}

* * *

Test system: 317291-083-R-J1-PDC complex spheroids, viability
Method summary: Anticancer human tumor 317291-083-R-J1-PDC cell line growth inhibition [GQUAD];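 further: spheroids exposed to compounds for one week before readout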;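 on viability, T/C: percent viability relative to DMSO vehicle wells taken as 100%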
Test parameters: second compound 3.16 µM; first compound 0.00316 µM; stronger effect = lower value

{"columns": ["Molecule", "Target or system", "Value units", "viability, T/C"],
 "data": [
  ["Cn1ncnc1[C@H]1c2n[nH]c(=O)c3cc(F)cc(c23)N[C@@H]1c1ccc(F)cc1 + CN(C)c1ccc(Nc2c3ccc(NC(=O)CCN4CCCC4)cc3nc3cc(NC(=O)CCN4CCCC4)ccc23)cc1", "317291-083-R-J1-PDC complex spheroids, viability", "%", 24],
  ["CC[C@@]1(O)C(=O)OCc2c1cc1n(c2=O)Cc2cc3c(CN(C)C)c(O)ccc3nc2-1 + CN(C)c1ccc(Nc2c3ccc(NC(=O)CCN4CCCC4)cc3nc3cc(NC(=O)CCN4CCCC4)ccc23)cc1", "317291-083-R-J1-PDC complex spheroids, viability", "%", 24.1],
  ["CC[C@@]1(O)C(=O)OCc2c1cc1n(c2=O)Cc2cc3c(CN(C)C)c(O)ccc3nc2-1 + Cc1cnc(CNC(=O)c2c(=O)c3ccc(N4CCCN(C)CC4)nc3n3c2sc2ccccc23)cn1", "317291-083-R-J1-PDC complex spheroids, viability", "%", 37.8],
  ["Cc1[nH]c2ccccc2c1CCNCc1ccc(/C=C/C(=O)NO)cc1 + Cc1cnc(CNC(=O)c2c(=O)c3ccc(N4CCCN(C)CC4)nc3n3c2sc2ccccc23)cn1", "317291-083-R-J1-PDC complex spheroids, viability", "%", 41.7],
  ["CCc1c2c(nc3ccc(O)cc13)-c1cc3c(c(=O)n1C2)COC(=O)[C@]3(O)CC + CN(C)c1ccc(Nc2c3ccc(NC(=O)CCN4CCCC4)cc3nc3cc(NC(=O)CCN4CCCC4)ccc23)cc1", "317291-083-R-J1-PDC complex spheroids, viability", "%", 9.56],
  ["CCc1c2c(nc3ccc(O)cc13)-c1cc3c(c(=O)n1C2)COC(=O)[C@]3(O)CC + Cc1cnc(CNC(=O)c2c(=O)c3ccc(N4CCCN(C)CC4)nc3n3c2sc2ccccc23)cn1", "317291-083-R-J1-PDC complex spheroids, viability", "%", 14.9],
  ["Cc1[nH]c2ccccc2c1CCNCc1ccc(/C=C/C(=O)NO)cc1 + CN(C)c1ccc(Nc2c3ccc(NC(=O)CCN4CCCC4)cc3nc3cc(NC(=O)CCN4CCCC4)ccc23)cc1", "317291-083-R-J1-PDC complex spheroids, viability", "%", 4.52],
  ["Cn1ncnc1[C@H]1c2n[nH]c(=O)c3cc(F)cc(c23)N[C@@H]1c1ccc(F)cc1 + Cc1cnc(CNC(=O)c2c(=O)c3ccc(N4CCCN(C)CC4)nc3n3c2sc2ccccc23)cn1", "317291-083-R-J1-PDC complex spheroids, viability", "%", 13.4],
  ["CCc1c2c(nc3ccc(O)cc13)-c1cc3c(c(=O)n1C2)COC(=O)[C@]3(O)CC + Cc1[nH]c2ccc(F)cc2c1-c1nc2c3cccnc3c3ncccc3c2[nH]1", "317291-083-R-J1-PDC complex spheroids, viability", "%", 18.1],
  ["Cc1[nH]c2ccccc2c1CCNCc1ccc(/C=C/C(=O)NO)cc1 + Cc1[nH]c2ccc(F)cc2c1-c1nc2c3cccnc3c3ncccc3c2[nH]1", "317291-083-R-J1-PDC complex spheroids, viability", "%", 39],
  ["CC[C@@]1(O)C(=O)OCc2c1cc1n(c2=O)Cc2cc3c(CN(C)C)c(O)ccc3nc2-1 + Cc1[nH]c2ccc(F)cc2c1-c1nc2c3cccnc3c3ncccc3c2[nH]1", "317291-083-R-J1-PDC complex spheroids, viability", "%", 100],
  ["Cn1ncnc1[C@H]1c2n[nH]c(=O)c3cc(F)cc(c23)N[C@@H]1c1ccc(F)cc1 + Cc1[nH]c2ccc(F)cc2c1-c1nc2c3cccnc3c3ncccc3c2[nH]1", "317291-083-R-J1-PDC complex spheroids, viability", "%", 99.7]
]}
